Assay: PC3 cell line toxicity (Cell titer Glo viability)
Type: cell-based
Settings: human, PC3 prostate adenocarcinoma cells; PC3, 0.00017 uM, 72 h
Procedure: 90 nL DMSO is added to control wells. […] Luminescence was then recorded using Synergy Neo2Multi-mode Reader. Culture medium were purchased from ATCC, USA.
measurement_type: viability at 72 h, 0.00017 µM (%)

INSERT INTO results (molecule, value_unit, result) VALUES
  ('CN[C@@H]1C[C@H]2O[C@@](C)([C@@H]1OC)n1c3ccccc3c3c4c(c5c6ccccc6n2c5c31)C(=O)NC4 [Staurosporine, staurosporine, reference compound]', '%', 102);

All values here come from patent US20250057859A1.
